target: EGFR Del19/C797S (Homo sapiens, UniProt P00533, C797S/DEL746-750); assay: Biochemical EGFR kinase inhibition assay (Lance Ultra TR-FRET), double mutant del19/C797S; details: IC50 Del19/C797S (nM), 100 μM ATP
Sequence (P00533 with tags, fused parts or gaps DEL746-750/C797S): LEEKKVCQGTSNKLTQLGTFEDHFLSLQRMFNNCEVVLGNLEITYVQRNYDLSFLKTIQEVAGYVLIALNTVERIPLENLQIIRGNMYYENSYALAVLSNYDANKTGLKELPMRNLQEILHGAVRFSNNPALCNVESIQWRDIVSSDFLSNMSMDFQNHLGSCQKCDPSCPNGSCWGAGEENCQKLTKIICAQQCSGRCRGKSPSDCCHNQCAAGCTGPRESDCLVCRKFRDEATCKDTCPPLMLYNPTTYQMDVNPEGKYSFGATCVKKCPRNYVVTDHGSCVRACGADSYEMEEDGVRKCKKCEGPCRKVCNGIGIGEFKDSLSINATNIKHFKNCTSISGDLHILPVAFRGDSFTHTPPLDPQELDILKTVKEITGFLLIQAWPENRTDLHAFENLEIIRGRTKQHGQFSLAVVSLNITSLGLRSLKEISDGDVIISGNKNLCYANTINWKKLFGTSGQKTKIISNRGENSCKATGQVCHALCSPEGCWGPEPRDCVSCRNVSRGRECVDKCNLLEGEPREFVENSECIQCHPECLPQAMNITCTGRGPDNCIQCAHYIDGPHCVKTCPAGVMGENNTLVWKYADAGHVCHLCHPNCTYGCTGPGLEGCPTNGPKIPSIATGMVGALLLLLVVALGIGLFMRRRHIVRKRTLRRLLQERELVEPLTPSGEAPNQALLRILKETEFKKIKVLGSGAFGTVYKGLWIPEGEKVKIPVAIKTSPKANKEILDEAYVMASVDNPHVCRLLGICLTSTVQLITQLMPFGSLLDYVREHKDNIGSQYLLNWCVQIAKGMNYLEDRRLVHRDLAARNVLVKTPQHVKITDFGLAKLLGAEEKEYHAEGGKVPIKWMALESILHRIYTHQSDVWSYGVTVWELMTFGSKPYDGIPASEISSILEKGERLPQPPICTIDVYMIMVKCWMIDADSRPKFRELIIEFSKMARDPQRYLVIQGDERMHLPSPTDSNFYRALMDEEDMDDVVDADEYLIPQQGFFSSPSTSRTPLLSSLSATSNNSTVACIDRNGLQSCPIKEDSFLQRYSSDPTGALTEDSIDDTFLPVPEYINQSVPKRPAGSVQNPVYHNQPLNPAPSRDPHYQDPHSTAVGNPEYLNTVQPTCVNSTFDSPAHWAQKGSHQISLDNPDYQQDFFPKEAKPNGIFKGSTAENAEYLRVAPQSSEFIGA
Experimental readout: IC50 (nM)

Would you please look over these solved cases?
>  <Molecule>
CN(C)CCNC1CCN(c2cc(Nc3ccnc(-c4cnn(S(=O)(=O)C5CC5)c4)n3)ncc2C#Cc2cnn(C3CCOCC3)c2)CC1

>  <IC50 / nM>
1.3

$$$$
>  <Molecule>
CC(=O)N1CCC(n2cc(C#Cc3cnc(Nc4ccnc(-c5cnn(S(=O)(=O)C6CC6)c5)n4)cc3N3CCCC(O)C3)cn2)CC1 (stereo not shown)

>  <IC50 / nM>
9.5

$$$$

(I) CC1(O)CCN(c2cc(Nc3ccnc(-c4cnn(S(=O)(=O)C5CC5)c4)n3)ncc2C#Cc2cccnc2)CC1
(II) CN(CCO)c1cc(Nc2ccnc(-c3cnn(S(=O)(=O)C4CC4)c3)n2)ncc1C#Cc1cnn(C)c1
Could you tell me which of these two has the smaller IC50 figure? First: I Second: II Record your answer as the label of the chosen record.
I

---

molecular target: EGFR wildtype (WT) (Homo sapiens, UniProt P00533); assay: Biochemical EGFR kinase inhibition assay (Lance Ultra TR-FRET), wildtype; conditions: IC50 WT (nM), 100 μM ATP
Sequence (P00533 25-1210): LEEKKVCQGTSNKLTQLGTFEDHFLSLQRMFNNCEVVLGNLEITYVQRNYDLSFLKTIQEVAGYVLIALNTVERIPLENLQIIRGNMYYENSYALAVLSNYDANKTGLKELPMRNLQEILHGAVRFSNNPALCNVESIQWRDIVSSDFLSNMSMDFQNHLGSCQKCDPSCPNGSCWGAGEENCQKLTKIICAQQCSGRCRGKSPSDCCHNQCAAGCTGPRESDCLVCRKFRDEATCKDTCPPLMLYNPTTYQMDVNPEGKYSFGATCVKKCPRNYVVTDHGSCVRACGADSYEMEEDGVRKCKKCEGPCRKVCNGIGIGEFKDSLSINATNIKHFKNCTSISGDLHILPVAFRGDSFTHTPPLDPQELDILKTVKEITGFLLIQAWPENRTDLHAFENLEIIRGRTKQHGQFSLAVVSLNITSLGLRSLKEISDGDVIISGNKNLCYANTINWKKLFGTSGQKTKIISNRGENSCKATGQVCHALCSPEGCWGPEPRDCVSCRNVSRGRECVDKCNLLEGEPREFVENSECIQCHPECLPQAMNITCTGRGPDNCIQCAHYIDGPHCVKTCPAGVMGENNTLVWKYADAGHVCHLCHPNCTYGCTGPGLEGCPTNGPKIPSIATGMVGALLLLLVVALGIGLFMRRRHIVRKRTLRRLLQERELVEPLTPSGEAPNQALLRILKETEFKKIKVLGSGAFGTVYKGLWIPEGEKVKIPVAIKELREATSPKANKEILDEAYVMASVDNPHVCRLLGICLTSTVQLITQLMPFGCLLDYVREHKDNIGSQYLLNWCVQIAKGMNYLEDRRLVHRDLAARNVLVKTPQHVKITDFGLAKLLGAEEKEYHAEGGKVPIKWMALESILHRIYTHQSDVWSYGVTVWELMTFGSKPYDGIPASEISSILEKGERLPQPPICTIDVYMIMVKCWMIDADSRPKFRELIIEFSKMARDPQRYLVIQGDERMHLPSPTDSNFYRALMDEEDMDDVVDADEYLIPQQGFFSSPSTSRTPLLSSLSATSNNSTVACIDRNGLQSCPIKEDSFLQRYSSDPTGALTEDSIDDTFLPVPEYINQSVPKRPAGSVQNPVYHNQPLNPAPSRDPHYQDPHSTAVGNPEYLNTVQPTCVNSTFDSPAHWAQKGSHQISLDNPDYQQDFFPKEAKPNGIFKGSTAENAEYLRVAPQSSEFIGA
Experimental readout: IC50

>  <Compound>
CC1(O)CCN(c2cc(Nc3ccnc(-c4cnn(S(=O)(=O)C5CC5)c4)n3)ncc2C#Cc2ncc(CN3CCOCC3)cn2)CC1

>  <IC50>
2530 nM

$$$$
>  <Compound>
O=S(=O)(C1CC1)n1cc(-c2nccc(Nc3cc(N[C@H]4CC[C@](O)(CO)CC4)c(C#Cc4cnn(C(F)F)c4)cn3)n2)cn1

>  <IC50>
> 10000 nM

$$$$
>  <Compound>
O=S(=O)(C1CC1)n1cc(-c2nccc(Nc3cc(NC4CCC(O)CC4)c(C#CC4CCOC4C(F)(F)F)cn3)n2)cn1 (stereo not shown)

>  <IC50>
> 10000 nM

$$$$
>  <Compound>
C[C@]1(O)CC[C@H](CNc2cc(Nc3ccnc(-c4cnn(S(=O)(=O)C5CC5)c4)n3)ncc2C#Cc2cnn(CCF)c2)CC1

>  <IC50>
> 10000 nM

$$$$
>  <Compound>
O=S(=O)(C1CC1)n1cc(-c2nccc(Nc3cc(NC[C@H]4CC[C@@H](O)C4)c(C#Cc4cnn(C(F)F)c4)cn3)n2)cn1

>  <IC50>
> 10000 nM

$$$$

If you can, please state the reported IC50 value of O=S(=O)(C1CC1)n1cc(-c2nccc(Nc3cc(N4CCC(NCCO)CC4)c(C#Cc4cnn(C5CCOCC5)c4)cn3)n2)cn1 .
> 10000 nM

If you can, please state the reported IC50 value of COC1(O)CCN(c2cc(Nc3ccnc(-c4cnn(S(=O)(=O)C5CC5)c4)n3)ncc2C#CC2CCN(C)C2)CC1 (stereo not shown) .
3730 nM

If you can, please state the reported IC50 value of C=CC#Cc1cnc(Nc2ccnc(-c3cnn(S(=O)(=O)C4CC4)c3)n2)cc1N1CCC(C)(CO)CC1 .
> 10000 nM

If you can, please state the reported IC50 value of CC1(C#Cc2cnc(Nc3ccnc(-c4cnn(S(=O)(=O)C5CC5)c4)n3)cc2NC[C@H]2CC[C@H](CO)CC2)CC1 .
> 10000 nM

If you can, please state the reported IC50 value of Cn1cc(C#Cc2cnc(Nc3ccnc(-c4cnn(S(=O)(=O)C5CC5)c4)n3)cc2N2CCC(N3CC(F)(F)C3)CC2)cn1 .
> 10000 nM

If you can, please state the reported IC50 value of O=C(c1ccc(C#Cc2cnc(Nc3ccnc(-c4cnn(S(=O)(=O)C5CC5)c4)n3)cc2N2CCC[C@H](O)C2)cc1)N1CCC(O)CC1 .
> 10000 nM

If you can, please state the reported IC50 value of Cn1cnc(C#Cc2cnc(Nc3ccnc(-c4cnn(S(=O)(=O)C5CC5)c4)n3)cc2NCC(C)(C)CO)c1 .
> 10000 nM

If you can, please state the reported IC50 value of CN(C)C[C@H]1CC[C@@H](Nc2cc(Nc3ccnc(-c4cnn(S(=O)(=O)C5CC5)c4)n3)ncc2C#Cc2cnn(C(F)F)c2)CC1 .
8840 nM
